The following binders are listed with their measured pKd values.
Molecular target: T1, full-length wild type recombinant human LCAT (human, UniProt P04180 25-440)
T1 construct: also called huLCAT; hLCAT
T1 sequence: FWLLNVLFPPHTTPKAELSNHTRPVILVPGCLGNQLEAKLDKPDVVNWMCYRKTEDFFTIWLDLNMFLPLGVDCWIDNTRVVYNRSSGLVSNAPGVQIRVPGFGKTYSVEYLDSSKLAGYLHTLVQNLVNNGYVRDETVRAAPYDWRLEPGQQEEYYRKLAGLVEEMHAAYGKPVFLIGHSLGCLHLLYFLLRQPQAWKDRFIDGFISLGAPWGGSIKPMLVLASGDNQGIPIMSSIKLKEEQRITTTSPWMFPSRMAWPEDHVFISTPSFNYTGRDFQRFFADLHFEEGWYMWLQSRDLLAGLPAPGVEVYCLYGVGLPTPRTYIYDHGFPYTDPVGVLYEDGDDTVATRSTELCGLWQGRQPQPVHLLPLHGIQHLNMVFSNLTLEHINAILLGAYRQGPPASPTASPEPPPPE
Assay: Binding Affinity (nM), Table 12; method not restated (BIAcore of Example 3 presumed)
pKd: −log10 of the molar value.
OUTCOME_MEASURE: pKd

[[record]]
binder = "27C3(S42A, S133T, M136I/I112V) (antibody, human IgG2, lambda, V domains shown, IgG2 lambda; The mutations are already in the entries) VH: QVQLQESGPGLVKPSQTLSLTCTVSGASISSGGYNWAWIRQHPGKGLEWIGYIYYSGSTYYNPSLKSRVTISVDTSKNQFSLKLSSVTAADTAVYYCARERGYCSSTSCTRVIDVWGQGTTVTVSS VL: SSELTQDPAVSVALGQTVRITCQGDSLRSYYASWYQQKPGQAPVLVIYGKNNRPSGIPDRFSGSSSGNTASLTITGAQAEDEADYYCNSRDNVGNHQVFGGGTKLTVLG"
numeric_result = 9.52

[[record]]
binder = "27C3(S42A, S133T, M136I/N107G, I112V) (antibody, human IgG2, lambda, V domains shown, IgG2 lambda; The mutations are already in the entries) VH: QVQLQESGPGLVKPSQTLSLTCTVSGASISSGGYNWAWIRQHPGKGLEWIGYIYYSGSTYYNPSLKSRVTISVDTSKNQFSLKLSSVTAADTAVYYCARERGYCSSTSCTRVIDVWGQGTTVTVSS VL: SSELTQDPAVSVALGQTVRITCQGDSLRSYYASWYQQKPGQAPVLVIYGKNNRPSGIPDRFSGSSSGNTASLTITGAQAEDEADYYCGSRDNVGNHQVFGGGTKLTVLG"
numeric_result = 9.30

[[record]]
binder = "27C3(S42A, S131T, M136I/N107G, I112V) (antibody, human IgG2, lambda, V domains shown, IgG2 lambda; The mutations are already in the entries) VH: QVQLQESGPGLVKPSQTLSLTCTVSGASISSGGYNWAWIRQHPGKGLEWIGYIYYSGSTYYNPSLKSRVTISVDTSKNQFSLKLSSVTAADTAVYYCARERGYCSSTTCSRVIDVWGQGTTVTVSS VL: SSELTQDPAVSVALGQTVRITCQGDSLRSYYASWYQQKPGQAPVLVIYGKNNRPSGIPDRFSGSSSGNTASLTITGAQAEDEADYYCGSRDNVGNHQVFGGGTKLTVLG"
numeric_result = 8.89

